Each record here notes measured z-score.
assay.details: optical density shifts of acrAB sulA E. coli – strain DRC41, OD650, 48 h, E. coli filamentation inducer project, primary screen (AID 1152);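 further: E. coli MC1000 strain DRC41 lacking acrAB efflux pump and sulA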
applied.conditions: higher = more signal, called active from +8 up or from −8 down
Just the number.

Look over these answered cases.
>>> result_value("C=CCC(OC(C)=O)[C@@H]1[C@@H](N(Cc2cc3ccccc3o2)C(=O)Cc2ccc(OC)cc2)c2cc(OCCCO)ccc2N1C(=O)c1ccc2ccccc2n1 (stereo partly drawn)")
0.697
>>> result_value("CC(C)NC(=O)[C@@]1(c2ccc([N+](=O)[O-])cc2)CC(=O)N(CC23CC4CC(CC(C4)C2)C3)[C@@H]1c1ccc(CO)cc1")
-0.323
>>> result_value("C=CCOC(=O)[C@@H]1[C@H]2C(=O)O[C@H](c3ccccc3)[C@H](c3ccccc3)N2[C@H](c2ccc(OCCOC(=O)[C@H]3C[C@H]4C(=O)N5CCC[C@H]5C(=O)N4[C@H]3c3cccc(OCCO)c3)cc2)[C@@]12C(=O)Nc1ccc(I)cc12")
-0.565

Requested field: z-score. Item: `CN(C)CCCNC(=O)[C@@]1(Cc2ccccc2I)c2ccccc2C(=O)N(C2CCCCC2)[C@H]1c1ccc(CO)cc1`
-2.04

Requested field: z-score. Item: `C=C(COC)/C(=C/C[C@@H](OC(C)=O)c1ccccc1OCCO)c1cnc2ccccc2c1`
-0.146
